Assay: physchem
Source text: The method for the generation of Log P values by high performance liquid chromatography (HPLC) was adapted from that described by Zhao et al. 22. Briefly, Log P correlates with the retention time of a compound by a solid phase C18 column. […] By using compounds with known Log P values, a standard curve can be determined and the Log P of a compound of interest obtained by interpolation. […]
Numbered stars: 1 amine (or outer) side, 2 acyl side, 3 side chain; on linkers, the order of the positions; unused ones are H or OH. Bridge positions count the residues as written; N and C are the ends. Square brackets hold non-standard residues; d marks the D form. Peptide text beside a SMILES is read from it. I, II: the chains in the order shown. Actinocin(9to1) = Cc1c2oc3c(C)ccc(C(=O)[*:1])c3nc-2c(C(=O)[*:2])c(N)c1=O; NMeV = CN[C@H](C(=O)O)C(C)C; Sar = CNCC(=O)O
MEASUREMENT KIND: chromatographic logP
Enter the number alone.

Ask: Consider the molecule shown here: Cc1c2oc3c(C)ccc(C(=O)N[C@@H]4C(=O)N[C@H](C(C)C)C(=O)N5CCC[C@H]5C(=O)N(C)CC(=O)N(C)[C@@H](C(C)C)C(=O)O[C@@H]4C)c3nc-2c(C(=O)N[C@@H]2C(=O)N[C@H](C(C)C)C(=O)N3CCC[C@H]3C(=O)N(C)CC(=O)N(C)[C@@H](C(C)C)C(=O)O[C@@H]2C)c(N)c1=O [Act D, Actinomycin D] (I: T[dV]P[Sar][NMeV] / II: T[dV]P[Sar][NMeV]; ester I:1-I:C, II:1-II:C; linker I:N-II:N via Actinocin(9to1)) What is its recorded chromatographic logP?
Result: 4.47

* * *

test: Log P by HPLC retention on C18 column; details: reversed-phase C18 HPLC column (Luna 5 µ C18 50 × 2.0 mm)
MEASUREMENT KIND: chromatographic logP

Ask: Which measured chromatographic logP value corresponds to C[C@@H]1C[C@H]2[C@@H]3CCC4=CC(=O)C=C[C@]4(C)[C@@]3(F)[C@@H](O)C[C@]2(C)[C@@]1(O)C(=O)CO ?
Result: 1.8

* * *

assay: Blood:plasma partitioning in whole blood from a healthy donor; assay type: in vitro ADME; settings: human, 37 °C, 1 h, 95% confidence interval 0.03, read-out: Mean blood-to-plasma ratio
Numbered stars: 1 amine (or outer) side, 2 acyl side, 3 side chain; on linkers, the order of the positions; unused ones are H or OH. Bridge positions count the residues as written; N and C are the ends. Square brackets hold non-standard residues; d marks the D form. Peptide text beside a SMILES is read from it. I, II: the chains in the order shown. Actinocin(9to1) = Cc1c2oc3c(C)ccc(C(=O)[*:1])c3nc-2c(C(=O)[*:2])c(N)c1=O; NMeV = CN[C@H](C(=O)O)C(C)C; Sar = CNCC(=O)O
MEASUREMENT KIND: blood plasma ratio at 1 h

Ask: Fill blank: measured blood plasma ratio at 1 h of the molecule Cc1c2oc3c(C)ccc(C(=O)N[C@@H]4C(=O)N[C@H](C(C)C)C(=O)N5CCC[C@H]5C(=O)N(C)CC(=O)N(C)[C@@H](C(C)C)C(=O)O[C@@H]4C)c3nc-2c(C(=O)N[C@@H]2C(=O)N[C@H](C(C)C)C(=O)N3CCC[C@H]3C(=O)N(C)CC(=O)N(C)[C@@H](C(C)C)C(=O)O[C@@H]2C)c(N)c1=O [Act D, Actinomycin D] (I: T[dV]P[Sar][NMeV] / II: T[dV]P[Sar][NMeV]; ester I:1-I:C, II:1-II:C; linker I:N-II:N via Actinocin(9to1)) is ____.
Result: 0.62
